Consider the following compounds and their measured inhibition at 1.14 µM readings.
Target: human full-length recombinant PKC βII (Homo sapiens)
Construct: Active human full-length recombinant PKC βII; purchased Invitrogen GmbH, Darmstadt, Germany
Assay: Determination of PKC βII inhibition (Caliper mobility-shift kinase assay, Fluorescein-RFARKGSLRQKNV peptide substrate)
Assay type: biochemical
Settings: example compounds at a final concentration of 1.14 μM (±0.15 μM)
Just so you know, I need the unit written after the number.

In [3]: df
Out[3]:
                                   compound                     target_or_test_system           readout_kind  value_observed
0  Cc1n[nH]c2nc(-c3ccc(O)cc3)cc(C(=O)N3CCNCC3(C)C)c12  human full-length recombinant PKC βII (Homo sapiens)  inhibition at 1.14 µM             99%
1  CCOC1CNCC1NC(=O)c1cc(-c2ccc(O)cc2)nc2[nH]nc(C)c12 (centres unmarked)  human full-length recombinant PKC βII (Homo sapiens)  inhibition at 1.14 µM             83%
2  Cc1n[nH]c2nc(-c3ccc(O)c(F)c3)cc(C(=O)N3CCC4(CC3)CNC4)c12  human full-length recombinant PKC βII (Homo sapiens)  inhibition at 1.14 µM             72%

Looking for the measured inhibition at 1.14 µM of Cc1cc(O)ccc1-c1cc(C(=O)N2CCNCC2c2ccccc2Cl)c2c(C)n[nH]c2n1 (centres unmarked) , can you help? 89%

---

Items are presented alongside their recorded inhibition at 1.14 µM.
Molecular target: human full-length recombinant PKC βII (Homo sapiens, UniProt P05771)
Construct: Active human full-length recombinant PKC βII; purchased Invitrogen GmbH, Darmstadt, Germany
Sequence (P05771 1-673 isoform P05771-2): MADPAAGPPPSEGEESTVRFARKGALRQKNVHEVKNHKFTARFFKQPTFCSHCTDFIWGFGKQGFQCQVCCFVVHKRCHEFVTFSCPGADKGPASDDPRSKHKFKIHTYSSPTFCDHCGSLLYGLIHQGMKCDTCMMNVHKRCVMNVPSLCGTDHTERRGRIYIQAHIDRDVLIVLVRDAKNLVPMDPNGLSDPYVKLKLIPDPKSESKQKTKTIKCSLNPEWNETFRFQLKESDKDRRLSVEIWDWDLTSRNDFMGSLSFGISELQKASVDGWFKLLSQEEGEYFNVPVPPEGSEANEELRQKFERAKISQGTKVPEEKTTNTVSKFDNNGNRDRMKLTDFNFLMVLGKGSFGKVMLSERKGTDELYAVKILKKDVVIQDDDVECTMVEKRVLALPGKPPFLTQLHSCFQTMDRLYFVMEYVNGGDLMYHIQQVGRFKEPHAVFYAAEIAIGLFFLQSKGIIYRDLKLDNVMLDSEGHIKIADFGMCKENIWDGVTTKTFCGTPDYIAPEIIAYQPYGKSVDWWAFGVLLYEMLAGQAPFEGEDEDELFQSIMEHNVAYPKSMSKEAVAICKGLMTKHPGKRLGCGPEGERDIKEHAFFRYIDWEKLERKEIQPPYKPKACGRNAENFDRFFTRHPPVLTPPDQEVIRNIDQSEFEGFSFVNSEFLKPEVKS
Experiment: Determination of PKC βII inhibition (Caliper mobility-shift kinase assay, Fluorescein-RFARKGSLRQKNV peptide substrate)
Type: biochemical
Conditions: example compounds at a final concentration of 1.14 μM (±0.15 μM)
Reply with just the number (in %).

See these solved cases before continuing.
                                   molecule  value_observed
0  Cc1n[nH]c2nc(-c3ccc(O)c(F)c3)cc(C(=O)N3CCCN(C)CC3)c12              41
1  COc1cccc(C2CNCCN2C(=O)c2cc(-c3ccc(O)cc3C)nc3[nH]nc(C)c23)c1 (stereo not shown)              97
2  Cc1n[nH]c2nc(-c3ccc(O)cc3)cc(C(=O)N3CCN(C(N)=O)CC3)c12              41
3  O=C(N[C@@H]1CCCNC1)c1cc(-c2ccc(O)cc2)nc2[nH]nc(C(F)(F)F)c12              21

Which inhibition at 1.14 µM reading was recorded for the molecule Cc1n[nH]c2nc(-c3ccc(O)cc3)cc(C(=O)N[C@H]3CC[C@@H](N)CC3)c12 ? 72

Consider the molecule shown here: CCc1n[nH]c2nc(-c3ccc(O)c(F)c3)cc(C(=O)N3CCNCC3)c12 What is its recorded inhibition at 1.14 µM? 69

Data request, read-out inhibition at 1.14 µM, for CNC1CCN(C(=O)c2cc(-c3ccc(O)cc3)nc3[nH]nc(C(F)(F)F)c23)C1 (stereo not shown) 47

---

Biological target: human full-length recombinant PKC βII (Homo sapiens, UniProt P05771)
Construct: Active human full-length recombinant PKC βII; purchased Invitrogen GmbH, Darmstadt, Germany
Assay: Determination of PKC βII inhibition (Caliper mobility-shift kinase assay, Fluorescein-RFARKGSLRQKNV peptide substrate)
Format: biochemical
Conditions: example compounds at a final concentration of 1.14 μM (±0.15 μM)
Lab note: anything with inhibition at 1.14 µM at or over 90% counts as label 1; the rest go in label 0.

>>> df
                                   compound  assigned_category
0  CCCC1(NC(=O)c2cc(-c3ccc(O)cc3)nc3[nH]nc(C)c23)CCCNC1 (centres unmarked)            label 0
1  Cc1n[nH]c2nc(-c3ccc(O)c(F)c3)cc(C(=O)N3CCC4(CNCCO4)C3)c12 (centres unmarked)            label 0
2  CN[C@H]1CN(C(=O)c2cc(-c3ccc(O)c(F)c3)nc3[nH]nc(C)c23)CC[C@H]1C (racemic)            label 0
3  Cc1n[nH]c2nc(-c3ccc(O)c(F)c3)cc(C(=O)NC3CN4CCC3CC4)c12 (stereo in doubt) [Example 361]            label 0
4  Cc1n[nH]c2nc(-c3ccc(O)cc3)cc(C(=O)N3CC4CCC(C3)N4)c12            label 1

Now look at this one.
Kindly determine if inhibition at 1.14 µM recorded for Cc1n[nH]c2nc(-c3ccc(O)cc3)cc(C(=O)NCC3CCC(=O)N3)c12 (centres unmarked) is above or exactly 90%. label 0

---

Target: human full-length recombinant PKC βII (Homo sapiens, UniProt P05771)
Construct: Active human full-length recombinant PKC βII; purchased Invitrogen GmbH, Darmstadt, Germany
Assay: Determination of PKC βII inhibition (Caliper mobility-shift kinase assay, Fluorescein-RFARKGSLRQKNV peptide substrate)
Format: biochemical
Details: example compounds at a final concentration of 1.14 μM (±0.15 μM)
readout_kind: inhibition at 1.14 µM (%)
Numeric answer only, unit % assumed.

Some compounds with known inhibition at 1.14 µM results, for comparison:
>>> print(df.to_string())
                                   compound  value_observed
0  Cc1n[nH]c2nc(-c3ccc(O)cc3)cc(C(=O)N3CCNCC3c3ccccc3C(F)(F)F)c12 (stereo not shown)              79
1  CNC1CCN(C(=O)c2cc(-c3ccc(O)cc3)nc3[nH]nc(C)c23)CC1              88
2  Cc1n[nH]c2nc(-c3ccc(O)cc3)cc(C(=O)N3CC4CN(Cc5ccccc5)CC4C3)c12 (stereo not shown)              51
3  Cc1n[nH]c2nc(-c3ccc(O)cc3F)cc(C(=O)N3C[C@@H](C)N(CC4CCOCC4)C[C@@H]3C)c12              81
4  Cc1n[nH]c2nc(-c3ccc(O)cc3F)cc(C(=O)N3C(C)CNCC3C)c12 (stereo not shown)              99
5  Cc1n[nH]c2nc(-c3ccc(O)c(F)c3)cc(C(=O)N3CCCC4CNCCC43)c12 (stereo not shown)              69
6  Cc1n[nH]c2nc(-c3ccc(O)c(F)c3)cc(C(=O)NCCC3CCCN3C)c12 (stereo not shown)              51
7  Cc1n[nH]c2nc(-c3ccc(O)cc3)cc(C(=O)NCCN3CCC(c4ccccc4)CC3)c12              67
8  CCc1n[nH]c2nc(-c3ccc(O)cc3)cc(C(=O)NCC3CCC(=O)N3)c12 (stereo not shown)              33
9  Cc1n[nH]c2nc(-c3ccc(O)cc3)cc(C(=O)N3CCOC4(CCNCC4)C3)c12              70

Sample CCCC1(N)CCN(C(=O)c2cc(-c3ccc(O)cc3)nc3[nH]nc(C)c23)CC1 — what was its inhibition at 1.14 µM? 76

// query inhibition at 1.14 µM value for entry CCN1CCCC(NC(=O)c2cc(-c3ccc(O)cc3)nc3[nH]nc(C)c23)C1 (stereo not shown) 83

Form field: reported inhibition at 1.14 µM of Cc1n[nH]c2nc(-c3ccc(O)cc3)cc(C(=O)N3CCC4(CNCCO4)C3)c12 (stereo not shown) 73

Look at this compound and give its reported inhibition at 1.14 µM. Cc1n[nH]c2nc(-c3ccc(O)c(F)c3)cc(C(=O)N3CCNC(C)C3)c12 (stereo not shown) 93

Query (compound): Cc1n[nH]c2nc(-c3ccc(O)cc3Cl)cc(C(=O)N3CCNCC3)c12 ; field requested: inhibition at 1.14 µM 97

Returns the measured inhibition at 1.14 µM for the input compound. Input: Cc1n[nH]c2nc(-c3ccc(O)c(F)c3)cc(C(=O)N[C@H]3C[C@H](N)C3)c12 71

---

Parameter inhibition at 1.14 µM: see the listing below.
Molecular target: human full-length recombinant PKC βII (Homo sapiens, UniProt P05771)
Construct: Active human full-length recombinant PKC βII; purchased Invitrogen GmbH, Darmstadt, Germany
Test: Determination of PKC βII inhibition (Caliper mobility-shift kinase assay, Fluorescein-RFARKGSLRQKNV peptide substrate)
Assay type: biochemical
Settings: example compounds at a final concentration of 1.14 μM (±0.15 μM)
Kindly answer with a numeric value in %, unit omitted.

Here is how some molecules turned out for inhibition at 1.14 µM.
In [3]: df
Out[3]:
                                   molecule           readout_kind  value_observed
0  Cc1n[nH]c2nc(-c3ccc(O)c(F)c3)cc(C(=O)N3CCNC[C@@H]3C(C)C)c12 [Example 320]  inhibition at 1.14 µM              72
1  Cc1n[nH]c2nc(-c3ccc(O)cc3F)cc(C(=O)N3CC(C)(C)NCC34CCCC4)c12 [Example 437]  inhibition at 1.14 µM              99
2  O=C(c1cc(-c2ccc(O)cc2)nc2[nH]nc(C3CC3)c12)N1CCNCC1 [Example 55]  inhibition at 1.14 µM              27

// next item, inhibition at 1.14 µM requested
# inhibition at 1.14 µM lookup, item Cc1n[nH]c2nc(-c3ccc(O)cc3)cc(C(=O)N3CC[C@H](N)C3)c12 [Example 246] 88

Each recorded value in this set is attributed to patent US8686150B2.
